B1: glmS ribozyme (parent)
chain: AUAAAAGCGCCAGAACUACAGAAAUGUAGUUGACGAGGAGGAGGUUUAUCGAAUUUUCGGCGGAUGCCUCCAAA

variants of: B1; assay: self-cleavage kobs at 10000 uM GlcN6P; higher = faster cleavage; RNA array; settings: with glucosamine-6-phosphate
This sample holds only a part of the variants without activity.
Param threshold (0.0004 s⁻¹) applies to self-cleavage kobs at 10000 uM GlcN6P; output 1 (yes) when value >= threshold, 0 (no) when value < threshold.

These solved cases illustrate the format of a correct answer.
| variant key | category label |
| --- | --- |
| A33U G35C C71G | 0 (no) |
| G32U A52C U55G C61U | 0 (no) |
| G9C U46A C58U | 0 (no) |
| A42U G60A | 0 (no) |
| A64G C67U | 1 (yes) |

q: Evaluate A12U A15C : self-cleavage kobs at 10000 uM GlcN6P at minimum 0.0004 s⁻¹?
a: 1 (yes)

q: Next record, please: G7C C10A G13A A33C
a: 0 (no)

q: Next record, please: C16U A64U
a: 0 (no)

q: Next record, please: U46C C58U
a: 0 (no)

q: Next record, please: A12U C67U
a: 1 (yes)
